B1: EEHEE_rd3_0130 (parent)
chain: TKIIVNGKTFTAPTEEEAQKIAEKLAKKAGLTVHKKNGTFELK

variants of: B1; assay: folding stability dG (cDNA display proteolysis); higher = more stable; conditions: PBS, room temperature
quantity measured: folding stability dG (kcal/mol)
Record the value in kcal/mol, omitting the unit from your answer.

Query string: What value of measured folding stability dG is listed for T39L ?
Result string: 0.663

Query string: Any idea what folding stability dG was measured for K36H ?
Result string: 0.939

Query string: Fill blank: measured folding stability dG of the variant I4P is ____.
Result string: -0.499

Query string: Given T11E , state its recorded folding stability dG.
Result string: 0.261

Query string: Requested field: folding stability dG. Item: F40Y
Result string: 0.608

Query string: Quick check: folding stability dG of A22E ?
Result string: -0.91

Query string: Which folding stability dG value belongs to G7R ?
Result string: 0.021

Query string: What value of measured folding stability dG is listed for I3T ?
Result string: -0.896

Query string: Sample E17H — what was its folding stability dG?
Result string: 0.567

Query string: Please report the recorded folding stability dG for T32H .
Result string: 0.159

Query string: Name the recorded folding stability dG for P13R .
Result string: 0.954

Query string: Using the record for A29E , report its folding stability dG.
Result string: 0.607

Query string: Tell me the measured folding stability dG of H34V , please.
Result string: 1.25

Query string: Find the recorded folding stability dG belonging to T11K and report it.
Result string: 0.248

Query string: Return reported folding stability dG; argument: E15P
Result string: 0.736

Query string: State the recorded folding stability dG for this entry: L25C
Result string: 1.13

Query string: Fill blank: measured folding stability dG of the variant K35L is ____.
Result string: 0.661

Query string: Data request, read-out folding stability dG, for T14Q
Result string: -0.297

Query string: # query: folding stability dG of entry H34C
Result string: 1.31

Query string: Param item = K28D ; retrieve measured folding stability dG.
Result string: 0.738

Query string: Quick one: folding stability dG for K43Y ?
Result string: 1.15

Query string: Suppose we examine the variant F10I ; what folding stability dG value has been reported?
Result string: 0.454

Query string: // folding stability dG lookup, key: K36C
Result string: 0.875

Query string: What does the data say about its folding stability dG? Entry: E17C
Result string: 1.46

Query string: Look up folding stability dG: L25G
Result string: -0.493

Query string: I would be grateful if you could share the reported folding stability dG for K36P .
Result string: -0.983

Query string: State the recorded folding stability dG for this entry: T11D
Result string: -0.3

Query string: Please report the recorded folding stability dG for K2S .
Result string: 0.364

Query string: Can you look up the measured folding stability dG of A29K for me?
Result string: 0.837

Query string: Please report the recorded folding stability dG for T14A .
Result string: -0.233

Query string: Form field: reported folding stability dG of T1D
Result string: -0.934

Query string: Would you kindly share the measured folding stability dG for T1L ?
Result string: 0.508

Query string: Which folding stability dG reading was recorded for the variant K43S ?
Result string: 0.91

Query string: // lookup folding stability dG for A12R
Result string: 0.461

Query string: Record request: folding stability dG value, item E17L
Result string: 1.25

Query string: For the variant K43E , what folding stability dG is on record?
Result string: 0.545

Query string: Which folding stability dG value is on record for A18V ?
Result string: -0.585

Query string: Give the measured folding stability dG of K24A .
Result string: 1.06

Query string: Which folding stability dG value is on record for E15V ?
Result string: 0.847

Query string: Entry N37D has what folding stability dG?
Result string: 0.873

Query string: Reported folding stability dG for K8W : what is it?
Result string: 1.53

Query string: Which folding stability dG reading was recorded for the variant V33L ?
Result string: 0.891

Query string: Param item = T11A ; retrieve measured folding stability dG.
Result string: 0.154

Query string: Look at this variant and give its reported folding stability dG. T39R
Result string: 0.935

Query string: Would you mind telling me what folding stability dG value was observed for K24E ?
Result string: 0.799

Query string: Recorded folding stability dG for K36I , please?
Result string: 1.56

Source: the MegaScale stability set (Tsuboyama et al. 2023)
